FYI, the data here is from patent US20190367619A1.

- targetDesc: T1, human galectin-10-His (recombinant human galectin-10 with TEV-cleavable N-terminal His-tag) (human)
- T1 construct: SEC-MALLS: dimer in solution; also called Gal10-His; humanGal10-His
- T1 chain: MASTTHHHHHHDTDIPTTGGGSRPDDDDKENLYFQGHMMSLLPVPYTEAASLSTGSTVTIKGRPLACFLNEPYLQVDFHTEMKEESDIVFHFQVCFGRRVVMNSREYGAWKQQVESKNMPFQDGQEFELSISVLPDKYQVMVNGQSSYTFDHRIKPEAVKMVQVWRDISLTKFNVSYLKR
- assayText: BLI tandem on galectin-10-His; competitor: saturating 1C09 mIgG1 (10 ug/mL)
For each entry below, report its binding signal (nm) value.
Numbers only, in nm.

Some binders with known binding signal (nm) results, for comparison:
binder | measureName | quantityUnit | valueReported
6F06 mouse IgG1 (antibody, V domains shown, also called 6F06 mIgG1) VH: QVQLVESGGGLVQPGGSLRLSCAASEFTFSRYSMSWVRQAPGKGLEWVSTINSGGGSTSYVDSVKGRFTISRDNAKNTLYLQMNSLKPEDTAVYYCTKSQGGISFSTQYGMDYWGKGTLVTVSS VL: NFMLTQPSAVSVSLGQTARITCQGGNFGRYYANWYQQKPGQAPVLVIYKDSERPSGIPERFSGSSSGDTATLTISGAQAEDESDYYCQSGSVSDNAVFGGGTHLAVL | binding signal (nm) | nm | 0
6A05 mouse IgG1 (antibody, V domains shown, also called 6A05 mIgG1) VH: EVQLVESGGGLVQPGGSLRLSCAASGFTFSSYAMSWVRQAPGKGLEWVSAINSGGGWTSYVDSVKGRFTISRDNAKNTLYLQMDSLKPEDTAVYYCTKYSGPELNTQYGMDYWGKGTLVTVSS VL: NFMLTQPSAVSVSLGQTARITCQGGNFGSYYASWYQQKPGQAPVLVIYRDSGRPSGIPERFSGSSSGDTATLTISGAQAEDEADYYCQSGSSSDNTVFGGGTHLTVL | binding signal (nm) | nm | 0
4E08 mouse IgG1 (antibody, V domains shown, VH on mouse IgG1 heavy chain constant domains (CH1-CH2-CH3), VL on mouse lambda light chain constant domain; also called 4E8; 4E08 mIgG1) VH: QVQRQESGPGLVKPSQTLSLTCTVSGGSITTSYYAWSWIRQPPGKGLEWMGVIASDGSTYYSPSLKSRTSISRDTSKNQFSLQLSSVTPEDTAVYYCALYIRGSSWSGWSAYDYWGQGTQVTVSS VL: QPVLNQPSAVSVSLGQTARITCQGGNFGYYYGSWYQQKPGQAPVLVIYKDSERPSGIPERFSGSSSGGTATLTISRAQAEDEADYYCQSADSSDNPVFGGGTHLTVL | binding signal (nm) | nm | -0.02
6A08 mouse IgG1 (antibody, V domains shown, also called 6A08 mIgG1) VH: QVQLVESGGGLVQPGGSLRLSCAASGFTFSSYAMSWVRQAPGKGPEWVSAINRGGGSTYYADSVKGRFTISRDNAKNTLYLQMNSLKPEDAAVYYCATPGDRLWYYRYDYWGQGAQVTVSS VL: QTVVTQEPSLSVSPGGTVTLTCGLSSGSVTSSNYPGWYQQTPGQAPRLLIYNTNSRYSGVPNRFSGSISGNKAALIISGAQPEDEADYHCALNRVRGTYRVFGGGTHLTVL | binding signal (nm) | nm | 0
2C07 mouse IgG1 (antibody, V domains shown, VH on mouse IgG1 heavy chain constant domains (CH1-CH2-CH3), VL on mouse lambda light chain constant domain; also called 2C07 mIgG1) VH: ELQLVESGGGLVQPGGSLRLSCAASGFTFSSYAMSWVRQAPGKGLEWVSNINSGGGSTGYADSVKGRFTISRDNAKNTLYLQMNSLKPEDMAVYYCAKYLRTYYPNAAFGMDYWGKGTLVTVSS VL: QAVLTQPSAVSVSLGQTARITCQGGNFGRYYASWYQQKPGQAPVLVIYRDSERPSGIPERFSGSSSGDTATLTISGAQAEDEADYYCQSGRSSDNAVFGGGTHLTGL | binding signal (nm) | nm | 0
2F09 mouse IgG1 (antibody, V domains shown, VH on mouse IgG1 heavy chain constant domains (CH1-CH2-CH3), VL on mouse lambda light chain constant domain; also called 2F09 mIgG1) VH: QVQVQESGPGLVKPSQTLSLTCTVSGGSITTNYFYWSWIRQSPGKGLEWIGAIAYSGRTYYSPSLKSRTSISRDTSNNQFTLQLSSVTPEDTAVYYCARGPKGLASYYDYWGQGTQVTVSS VL: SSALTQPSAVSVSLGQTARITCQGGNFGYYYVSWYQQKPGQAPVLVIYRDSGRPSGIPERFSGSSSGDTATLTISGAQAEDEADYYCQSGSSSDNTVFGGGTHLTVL | binding signal (nm) | nm | 0.04
6E10 mouse IgG1 (antibody, V domains shown, also called 6E010; 6E10 mIgG1) VH: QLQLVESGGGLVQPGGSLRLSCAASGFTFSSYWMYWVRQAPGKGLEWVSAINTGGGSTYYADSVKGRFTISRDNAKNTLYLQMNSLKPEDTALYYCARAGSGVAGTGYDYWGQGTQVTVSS VL: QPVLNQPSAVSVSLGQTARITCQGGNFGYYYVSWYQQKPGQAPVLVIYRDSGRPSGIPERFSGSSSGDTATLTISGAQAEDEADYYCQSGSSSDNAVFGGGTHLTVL | binding signal (nm) | nm | 0.03
1D11 mouse IgG1 (antibody, V domains shown, VH on mouse IgG1 heavy chain constant domains (CH1-CH2-CH3), VL on mouse lambda light chain constant domain; also called 1D011; 1D11 mIgG1) VH: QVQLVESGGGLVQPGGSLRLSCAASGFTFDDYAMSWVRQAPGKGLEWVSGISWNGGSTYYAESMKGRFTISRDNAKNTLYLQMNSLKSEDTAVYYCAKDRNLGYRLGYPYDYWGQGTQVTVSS VL: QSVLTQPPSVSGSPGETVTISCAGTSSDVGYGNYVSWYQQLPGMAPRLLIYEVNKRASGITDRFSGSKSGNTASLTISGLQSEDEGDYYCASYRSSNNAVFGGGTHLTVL | binding signal (nm) | nm | 0.01

Dear colleague, could you send me binding signal (nm) for each of the items below? Thanks.
1. 6B06 mouse IgG1 (antibody, V domains shown, also called 6B06 mIgG1) VH: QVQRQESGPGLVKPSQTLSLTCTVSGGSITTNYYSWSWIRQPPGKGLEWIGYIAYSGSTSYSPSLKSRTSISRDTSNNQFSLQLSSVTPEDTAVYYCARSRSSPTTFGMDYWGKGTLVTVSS VL: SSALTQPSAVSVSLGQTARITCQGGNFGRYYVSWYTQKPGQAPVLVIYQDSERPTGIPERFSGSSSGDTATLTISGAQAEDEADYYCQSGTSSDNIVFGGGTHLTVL
2. 1C09 mouse IgG1 (antibody, V domains shown, VH on mouse IgG1 heavy chain constant domains (CH1-CH2-CH3), VL on mouse lambda light chain constant domain; also called 1C09 mIgG1) VH: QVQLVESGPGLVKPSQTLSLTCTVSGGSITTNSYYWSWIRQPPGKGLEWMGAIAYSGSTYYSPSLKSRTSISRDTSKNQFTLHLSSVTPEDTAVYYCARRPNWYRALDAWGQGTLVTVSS VL: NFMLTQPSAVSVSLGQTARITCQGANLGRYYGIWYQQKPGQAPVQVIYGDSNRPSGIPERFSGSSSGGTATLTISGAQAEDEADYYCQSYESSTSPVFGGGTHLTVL

(A)
1: 0.01; 2: 0.03
